- TARGET DESC: the molecule itself
- PROCEDURE SUMMARY: 1H-15N TROSY-HSQC NMR (peak doubling of the asymmetric homodimer)

{"PROTEIN": "S64V-EmrE (natural protein) MNPYIYLGGAILAEVIGTTLMKFSEGFTRLWPSVGTIICYCASFWLLAQTLAYIPTGIAYAIWVGVGIVLISLLSWGFFGQRLDLPAIIGMMLICAGVLIINLLSRSTPH", "binding result": "binds"}
{"PROTEIN": "EmrE N102A (natural protein) MNPYIYLGGAILAEVIGTTLMKFSEGFTRLWPSVGTIICYCASFWLLAQTLAYIPTGIAYAIWSGVGIVLISLLSWGFFGQRLDLPAIIGMMLICAGVLIIALLSRSTPH", "binding result": "binds"}
{"PROTEIN": "EmrE A59L (natural protein) MNPYIYLGGAILAEVIGTTLMKFSEGFTRLWPSVGTIICYCASFWLLAQTLAYIPTGILYAIWSGVGIVLISLLSWGFFGQRLDLPAIIGMMLICAGVLIINLLSRSTPH", "binding result": "binds"}
